Tested on: ragweed (common ragweed, Ambrosia elatior)
TEST: Test A preemergence
Format: in vivo
MEASUREMENT_CONDITIONS: Ambrosia artemisiifolia, pre-emergence, 240 h, 125 g ai/ha, preemergence; 0 to 100 scale where 0 is no effect and 100 is complete control; approx. 10 d; read-out: Ragweed plant response rating
Description: […]
METRIC: pest or weed control at 125 g/ha (%)

> print(dat)
                                    molecule                            metric  quantitative.readout
 1  CN1C[C@H](c2csc3c2CCC3)[C@@H](C(=O)Nc2ccccc2S(C)(=O)=O)C1=O [Compound 1082]  pest or weed control at 125 g/ha                     0
 2  Cc1nc([C@H]2CNC(=O)[C@@H]2C(=O)Nc2ccccc2F)cs1 [Compound 1179]  pest or weed control at 125 g/ha                     0
 3  Cc1ccc([C@H]2CN(C)C(=O)[C@@H]2C(=O)Nc2cc(F)c(F)c(F)c2F)cc1 [Compound 1071]  pest or weed control at 125 g/ha                     0
 4  CN1C[C@H](c2ccc(C(F)(F)F)cc2)[C@@](F)(C(=O)Nc2cccc(F)c2F)C1=O (racemic) [Compound 1151]  pest or weed control at 125 g/ha                     0
 5  CN1CC(c2ccccc2OC(F)(F)C(F)F)C(C(=O)Nc2cccc(F)c2F)C1=O (stereo not drawn) [Compound 1056]  pest or weed control at 125 g/ha                     0
 6  O=C1NC[C@H](c2cccc(I)c2)[C@H]1C(=O)Nc1ccccc1F [Compound 1160]  pest or weed control at 125 g/ha                     0
 7  CCc1cc(CC)cc([C@H]2CNC(=O)[C@@H]2C(=O)Nc2cccc(F)c2F)c1 [Compound 1139]  pest or weed control at 125 g/ha                    50
 8  CN1C[C@H](c2csc3c2CCCC3)[C@@H](C(=O)Nc2ccccc2S(C)(=O)=O)C1=O [Compound 1080]  pest or weed control at 125 g/ha                     0
 9  CC(C)Oc1cc([C@H]2CN(C)C(=O)[C@@H]2C(=O)Nc2cccc(F)c2F)ccc1F [Compound 1075]  pest or weed control at 125 g/ha                    20
10  CN1C[C@H](c2cccc(C(F)(F)F)c2)[C@@H](C(=O)Nc2ccccc2CCO)C1=O (racemic) [Compound 1162]  pest or weed control at 125 g/ha                     0
11  COCOCc1ccccc1NC(=O)[C@H]1C(=O)N(C)C[C@@H]1c1cccc(C(F)(F)F)c1 (racemic) [Compound 1161]  pest or weed control at 125 g/ha                     0
12  O=C1NC[C@H](c2csc(C(F)F)c2)[C@H]1C(=O)Nc1cccc(F)c1F [Compound 1119]  pest or weed control at 125 g/ha                    70
13  Cc1c(F)cccc1NC(=O)[C@H]1C(=O)N(C)C[C@@H]1c1cc(F)cc(F)c1 [Compound 1140]  pest or weed control at 125 g/ha                    30
14  O=C1NC[C@H](c2csc(C(F)F)c2)[C@H]1C(=O)Nc1ccccc1F [Compound 1118]  pest or weed control at 125 g/ha                    20
15  Cc1cc([C@H]2CN(C)C(=O)[C@@H]2C(=O)Nc2ccccc2C(F)(F)F)ccc1Br [Compound 1103]  pest or weed control at 125 g/ha                    20
